Exercise: for every item that follows, state its recorded pIC50.
SUBJECT OF TEST: Acid phosphatase
PROTOCOL DETAILS: Mouse hepatic lysosomal acid phosphatase activity
Type: biochemical
EXPERIMENTAL SETUP: Table V; mouse hepatic, 60 min incubation
Where a name gives a salt, the structure may show the parent alone.
// pIC50: -log10(molar conc.)

Inquiry: Query pIC50 for C[N+](C)(C)[BH2-]C(=O)NO [Compound 14]
Reply text: 5.37

Inquiry: Given the molecule C[NH+](C)[BH2-]C(=O)O [Compound 23, Dimethylamine-carboxyborane, sodium salt] , write its reported pIC50.
Reply text: 5.10

Inquiry: Fill in pIC50 for record C[NH+](C)[BH2-]C#N [Compound 10, Dimethylamine-cyanoborane]
Reply text: 5.05

Inquiry: Specify pIC50 for CCCCCCCCCCCCCCCC[N+](C)(C)[BH2-]C(=O)O [Compound 7, N,N-Dimethylhexadecylamine-carboxyborane] and stop.
Reply text: 5.05

Inquiry: Please indicate pIC50 recorded for O=C(O)[BH2-][n+]1ccccc1 [Compound 15, Pyridine-carboxyborane]
Reply text: 5.00

Inquiry: Give a short answer stating reported pIC50 for C[N+](C)(C)[BH2-]C#N [Compound 2, Trimethylamine-cyanoborane] .
Reply text: 5.45

----------
SUBJECT OF TEST: Cathepsin D (Homo sapiens)
Construct: azocasein assay pH 5.0
Sequence (P07339 65-412): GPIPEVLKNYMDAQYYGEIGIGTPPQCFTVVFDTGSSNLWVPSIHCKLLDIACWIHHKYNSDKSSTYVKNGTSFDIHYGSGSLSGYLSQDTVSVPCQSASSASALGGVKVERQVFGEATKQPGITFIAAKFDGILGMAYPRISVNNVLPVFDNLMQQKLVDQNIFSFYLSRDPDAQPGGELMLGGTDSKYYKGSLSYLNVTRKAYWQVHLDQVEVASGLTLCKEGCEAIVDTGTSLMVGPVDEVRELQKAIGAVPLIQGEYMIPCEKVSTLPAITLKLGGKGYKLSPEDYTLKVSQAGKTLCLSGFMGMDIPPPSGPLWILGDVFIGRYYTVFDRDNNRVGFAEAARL
PROTOCOL DETAILS: Human osteoporosis fibroblasts cathepsin D (azo-casein) activity
Assay type: cell-based
EXPERIMENTAL SETUP: read-out: Cathepsin D IC50; Table X; human osteoporosis fibroblasts, DMEM +10% FCS + P/S
Kindly supply the reported IC50 values for the records listed here.
Respond with a number, then the unit of measure.

Inquiry: Given the compound C[N+](C)(C)[BH2-]C#N [Compound 2, Trimethylamine-cyanoborane] , write its reported IC50.
Reply text: 2010 nM

Inquiry: Output measured IC50 for this item: C[NH+](C)[BH2-]C#N [Compound 10, Dimethylamine-cyanoborane]
Reply text: 1280 nM

----------
SUBJECT OF TEST: Cathepsin D (Mus musculus)
Construct: azocasein assay pH 5.0
Sequence (P18242 65-410): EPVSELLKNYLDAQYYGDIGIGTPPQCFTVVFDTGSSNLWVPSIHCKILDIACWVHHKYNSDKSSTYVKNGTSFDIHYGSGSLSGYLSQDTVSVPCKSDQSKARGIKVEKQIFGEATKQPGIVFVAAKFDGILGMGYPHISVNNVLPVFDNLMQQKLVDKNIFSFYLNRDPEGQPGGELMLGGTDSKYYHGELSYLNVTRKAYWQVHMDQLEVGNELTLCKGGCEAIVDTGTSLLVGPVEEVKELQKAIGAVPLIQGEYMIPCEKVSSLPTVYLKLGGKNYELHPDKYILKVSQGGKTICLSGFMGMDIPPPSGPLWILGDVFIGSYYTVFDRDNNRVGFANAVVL
PROTOCOL DETAILS: Mouse hepatic lysosomal cathepsin D activity
Type: biochemical
EXPERIMENTAL SETUP: read-out: Cathepsin D IC50; Table V; mouse hepatic, 60 min incubation
Field: pIC50. Provide a value for each of the compounds that follow.
Convention used: pIC50 is expressed as -log10 of the molar concentration.

Inquiry: Retrieve pIC50 measured for C[N+](C)(C)[BH2-]C#N and print it.
Reply text: 6.14

Inquiry: For the compound C[NH+](C)[BH2-]C#N , give its reported pIC50.
Reply text: 5.49

----------
Give measured Writhing Reflex Mice for each item. Keep answers brief.
Tested on: Cf1 male mice
PROTOCOL DETAILS: Writhing reflex, 0.6% acetic acid
Type: in vivo
EXPERIMENTAL SETUP: Table XIV; unit inferred; unit assumed
Structures can show the parent of a compound that is named as a salt.
Report the value in % with no unit label.

Inquiry: Hello, please tell me recorded Writhing Reflex Mice for this one: CC#N.CO.CO.CO.C[N+](C)(C)[BH2-]C(=O)[O-].C[N+](C)(C)[BH2-]C(=O)[O-].C[N+](C)(C)[BH2-]C(=O)[O-].C[N+](C)(C)[BH2-]C(=O)[O-].C[N+](C)(C)[BH2-]C(=O)[O-].C[N+](C)(C)[BH2-]C(=O)[O-].O=[N+]([O-])[O-].[Fe+3].[Fe+3].[Fe+3].[O-2] [Compound 24]
Reply text: 42.9

Inquiry: Return Writhing Reflex Mice for the following compound: C[N+](C)(C)[BH2-]C(=O)O [Compound 22, sodium salt]
Reply text: 76.5

Inquiry: Let me know recorded Writhing Reflex Mice for C[N+](C)(C)[BH2-]C(=O)[O-].C[N+](C)(C)[BH2-]C(=O)[O-].C[N+](C)(C)[BH2-]C(=O)[O-].C[N+](C)(C)[BH2-]C(=O)[O-].C[N+](C)(C)[BH2-]C(=O)[O-].C[N+](C)(C)[BH2-]C(=O)[O-].O.O.O.[Cl-].[Fe+3].[Fe+3].[Fe+3].[O-2] [Compound 25] , thanks.
Reply text: 36.4

Inquiry: Please give measured Writhing Reflex Mice of the following entry: CC(C)=O.C[N+](C)(C)[BH2-]C(=O)[O-].O=[N+]([O-])[O-].[Ca+2] [Compound 28]
Reply text: 66.4
